# credit: PubChem BioAssay (NCI)

# Test system: HS 578T breast
# assay.notes: NCI-60 one-dose screen, 48 h
# test.context: 10 µM unless noted
About 83,000 compounds went through this panel and 20% of them were active in at least one assay; those are over-represented in the sample as a whole. The source made the active and inactive calls. How the source made its calls: active means growth percent below 10; inactive means the rest.
Respond only with the outcome that fits, drawn from active, inactive

Inquiry: Which outcome did this test record for the compound `COc1cc2nc(-c3ccc(C(F)(F)F)cc3)cc(OCCCN3CCCCC3)c2cc1OC` ?
Reply text: inactive

Inquiry: Which outcome did this test record for the compound `COc1cc(-c2cc(=O)oc3cc(O)ccc23)c(OC)c2c1OCO2` ?
Reply text: inactive

Inquiry: Which outcome did this test record for the compound `COc1ccccc1OCC(=O)N1CCCCCC1` ?
Reply text: inactive

Inquiry: Which outcome did this test record for the compound `C[C@H]1[C@H](C)CC[C@]2(CO)CC[C@]3(C)C(=CC[C@@H]4[C@@]5(C)CCCNC(C)(C)[C@@H]5CC[C@]43C)[C@H]12` ?
Reply text: inactive

Inquiry: Which outcome did this test record for the compound `O=C(N=Nc1c(O)[nH]c2ccc(F)cc12)c1cc2ccccc2[nH]1` ?
Reply text: inactive

Inquiry: Which outcome did this test record for the compound `CCN(CC)S(=O)(=O)c1cccc([N+](=O)[O-])c1` ?
Reply text: inactive

Inquiry: Which outcome did this test record for the compound `BrC(Br)(Br)c1cnc2ccccc2n1` ?
Reply text: inactive

Inquiry: Which outcome did this test record for the compound CN1C(=O)N(C)C2NC(N/N=C/c3ccccc3)=NC21 (stereo not given) ?
Reply text: inactive

Inquiry: Which outcome did this test record for the compound `CC(=O)[C@@H]1CC[C@]2(C(=O)n3ccnc3)CC[C@]3(C)[C@H](CC[C@@H]4[C@@]5(C)Cc6c([nH]c7ccccc67)C(C)(C)[C@@H]5CC[C@]43C)[C@@H]12` ?
Reply text: inactive

Inquiry: Which outcome did this test record for the compound `COc1ccccc1N1CCN(C(=O)c2ccc3nc(NC(=O)c4ccc(NCCc5ccccc5)c([N+](=O)[O-])c4)sc3c2)CC1` ?
Reply text: inactive

Inquiry: Which outcome did this test record for the compound COc1ccc(C(O)c2cc3c(N)c(C(=O)Nc4ccc(Br)cc4)sc3nc2C)cc1 (stereo not given) ?
Reply text: active

Inquiry: Which outcome did this test record for the compound `CC(C)[N+](C)(CCOC(COc1ccccc1)COc1ccccc1)C(C)C` ?
Reply text: inactive

Inquiry: Which outcome did this test record for the compound `Cc1c2c(cc[n+]1Cc1ccccc1)c1ccc(OCC3CCCCC3)cc1n2CC1CCCCC1` ?
Reply text: active

Inquiry: Which outcome did this test record for the compound `c1ccc(-c2nn(-c3ccccc3)[n+](-c3ccccc3-c3ccccc3)n2)cc1` ?
Reply text: active

Inquiry: Which outcome did this test record for the compound `CCCCCCCCCCN=C(N)N=C(N)N` ?
Reply text: inactive

Inquiry: Which outcome did this test record for the compound `COc1ccc(NC(=O)c2sc3nc(C)c(C(=O)c4ccc(OC)cc4)cc3c2N)cc1` ?
Reply text: inactive

Inquiry: Which outcome did this test record for the compound `O=C1c2cccnc2C(=O)c2nc3cc(N4CCN(C5CC5)CC4)ccc3nc21` ?
Reply text: active

Inquiry: Which outcome did this test record for the compound `COc1ccc(CNCCN2C(=O)c3ccc4c5c(ccc(c35)C2=O)C(=O)N(CCNCc2ccc(OC)cc2)C4=O)cc1` ?
Reply text: active

Inquiry: Which outcome did this test record for the compound `Cc1cc(C)c(C=O)c(C)c1` ?
Reply text: inactive

Inquiry: Which outcome did this test record for the compound `COc1cc(-c2nc3occn3c2-c2ccnc(NCCNS(=O)(=O)c3ccc(Cl)cc3)n2)ccc1F` ?
Reply text: inactive
